Origin of measurements: PubChem BioAssay (EPA / NIEHS)

Experiment: CCTE_Shafer_MEA_acute_interburst_interval_mean: CCTE's Neural Acute Assay for Mean Interburst Interval, Shafer Lab (AID 2284016);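 further: percent change of mean interburst interval versus each well's own pre-dose baseline; curves fitted for decrease in interburst interval relative to DMSO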
Calls of active or inactive are those of the source. How the source made its calls: active means hit-call score of the fitted dose curve at least 0.9, where 1 is the maximum; inactive means score below 0.9.
Your reply should match one of these outcome classes. true (1) (active), false (0) (inactive)

In: What was the test verdict on Cc1c(F)c(F)c(COC(=O)C2C(/C=C(\Cl)C(F)(F)F)C2(C)C)c(F)c1F (stereo unspecified) ?
Out: false (0)

In: Check the results log: what was the call for CS/C(C)=N/OC(=O)N(C)SN(C)C(=O)O/N=C(\C)SC ?
Out: true (1)

In: Recorded test call requested for CC(C)(C)c1ccc(CSc2cnn(C(C)(C)C)c(=O)c2Cl)cc1
Out: true (1)

In: So what was the verdict on COP(=S)(OC)Oc1nc(Cl)c(Cl)cc1Cl in this test?
Out: false (0)

In: GET /call?item= CNC(=O)ON=CC(C)(C)SC returns the recorded outcome of this test.
Out: false (0)

In: Test call for this molecule, please: CC1COC(Cn2cncn2)(c2ccc(Oc3ccc(Cl)cc3)cc2Cl)O1 (stereo unspecified)
Out: false (0)
